The values you see were collected from PubChem BioAssay (Tox21).

assay.overview: qHTS assay to identify small molecule antagonists of the estrogen related receptor (ERR) signaling pathway - cell viability counter screen (AID 1224818);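 note: viability measured after 17.5 h of compound exposure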
measurement.context: ERR reporter cell line viability counter screen; series mostly up to 46.1 µM
Results filed as inconclusive are left out. Calls of active or inactive are those of the source. Calls come from the whole dose curve; as a rule, active = well fitted cell-killing curve with a large enough effect in the repeat runs; inconclusive = weak or mixed curves; inactive = flat fitted curve, though single readings scatter.
Choose one outcome from this list and give only that: active, inactive

# count of solved cases: 6
N=C1N=C(N)c2cc3ccccc3cc21 :: active
O=C(c1ccc(F)cc1)C1CCN(CCn2c(=O)[nH]c3ccccc3c2=O)CC1 :: inactive
OCc1c[nH]c2ccccc12 :: inactive
S=c1[nH]c2ccccc2s1 :: inactive
CC(C)C(C)(C)C(C)(C)C(C)(C)S :: inactive
Clc1ccc2nsnc2c1NC1=NCCN1 :: inactive

Q: Tell me the recorded outcome of this test for CCN(CC)CCCC(C)Nc1c2ccc(Cl)cc2nc2ccc(OC)cc12 (stereo not drawn) .
Ans: inactive

Q: Tell me the recorded outcome of this test for CCCCC(CC)COC(=O)c1ccccc1C(=O)O (stereo not drawn) .
Ans: inactive

====

assay.overview: qHTS assay to identify small molecule antagonists of the estrogen receptor alpha (ER-alpha) signaling pathway using the BG1 cell line - cell viability counter screen (AID 743081);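 note: compound given together with 17beta-estradiol as the ER stimulus; nearly all actives have a fitted effect of over 45% in size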
measurement.context: BG1Luc4E2 viability, CellTiter-Fluor, 22 h; series mostly up to 70.3 µM
Records with an inconclusive call do not appear. Calls of active or inactive are those of the source. Calls follow the shape of the dose curve; as a rule, active = well fitted cell-killing curve with a large enough effect in the repeat runs; inconclusive = weak or mixed curves, or effect the other way; inactive = flat fitted curve, though single readings scatter.
Choose one outcome from this list and give only that: active, inactive

Cc1onc(-c2ccccc2Cl)c1C(=O)N[C@@H]1C(=O)N2[C@@H]1SC(C)(C)[C@@H]2C(=O)O :: inactive
CCOc1nc2cccc(C(=O)OC(C)OC(=O)OC3CCCCC3)c2n1Cc1ccc(-c2ccccc2-c2nn[nH]n2)cc1 (configuration not stated) :: inactive
CCCCCCCC/C=C\CCCCCCCCOCCO :: active
Cc1[nH]cnc1C[C@H]1CCc2c(C)c3ccccc3n2C1=O :: inactive
Oc1ccc(Cl)cc1Sc1cc(Cl)ccc1O :: inactive

Q: Tell me the recorded outcome of this test for Cc1cccc(CN2CCN(C(c3ccccc3)c3ccc(Cl)cc3)CC2)c1 (configuration not stated) .
Ans: inactive

Q: Tell me the recorded outcome of this test for O=C(NOCC1CC1)c1ccc(F)c(F)c1Nc1ccc(I)cc1Cl .
Ans: inactive

Q: Tell me the recorded outcome of this test for O=C(Oc1ccccc1)c1ccccc1C(=O)Oc1ccccc1 .
Ans: inactive

Q: Tell me the recorded outcome of this test for CCN1/C(=C/C=C/c2sc3ccccc3[n+]2CC)Sc2ccccc21 .
Ans: active

Q: Tell me the recorded outcome of this test for CC(=O)S[C@@H]1CC2=CC(=O)CC[C@]2(C)[C@H]2CC[C@@]3(C)[C@@H](CC[C@@]34CCC(=O)O4)[C@H]12 .
Ans: inactive

Q: Tell me the recorded outcome of this test for C[C@@H]1C[C@H]2[C@@H]3CCC4=CC(=O)C=C[C@]4(C)[C@@]3(Cl)[C@@H](O)C[C@]2(C)[C@@]1(OC(=O)c1ccco1)C(=O)CCl .
Ans: inactive

Q: Tell me the recorded outcome of this test for [O-][n+]1ccccc1SSc1cccc[n+]1[O-] .
Ans: inactive

====

assay.overview: qHTS assay to identify small molecule agonists of H2AX (AID 1224845)
measurement.context: CHO-K1 phospho-H2AX Ser139 HTRF, 3 h; series mostly up to 154 µM
Inconclusive results are not listed. Active and inactive are the calls of the source. Calls follow the shape of the dose curve; as a rule, active = well fitted activation curve with a large enough effect in the signal ratio in the repeat runs (not every such curve was filed as active); inconclusive = weak or mixed curves; inactive = flat fitted curve, though single readings scatter; the % refers to the signal ratio.
Choose one outcome from this list and give only that: active, inactive

# count of solved cases: 3
COc1cc(-c2ccc(N=C=O)c(OC)c2)ccc1N=C=O :: inactive
CCCCN(CCCC)C(=O)N(CCCC)CCCC :: inactive
CCCCN1CCCC[C@H]1C(=O)Nc1c(C)cccc1C :: inactive

Q: Tell me the recorded outcome of this test for CCCC(C)c1ccccc1O (stereo unspecified) .
Ans: inactive

Q: Tell me the recorded outcome of this test for C[C@@H](NCCCc1cccc(C(F)(F)F)c1)c1cccc2ccccc12 .
Ans: active

Q: Tell me the recorded outcome of this test for OCCN1CCN(CC/C=C2/c3ccccc3Sc3ccc(C(F)(F)F)cc32)CC1 .
Ans: inactive
